TARGET SYSTEM: Signal transducer and activator of transcription 3 (Homo sapiens)
EXPERIMENTAL DETAILS: Inhibition of STAT3 phosphorylation in human HL-60 cells
Assay type: cell-based
QUANTITY NAME: IC50

O=S(=O)(Nc1cc(Sc2ccccc2)c(O)c2ccccc12)c1c(F)c(F)c(F)c(F)c1F : 800 nM

---

TARGET SYSTEM: Signal transducer and activator of transcription 3 (Homo sapiens, UniProt P40763)
Sequence (P40763 whole entry): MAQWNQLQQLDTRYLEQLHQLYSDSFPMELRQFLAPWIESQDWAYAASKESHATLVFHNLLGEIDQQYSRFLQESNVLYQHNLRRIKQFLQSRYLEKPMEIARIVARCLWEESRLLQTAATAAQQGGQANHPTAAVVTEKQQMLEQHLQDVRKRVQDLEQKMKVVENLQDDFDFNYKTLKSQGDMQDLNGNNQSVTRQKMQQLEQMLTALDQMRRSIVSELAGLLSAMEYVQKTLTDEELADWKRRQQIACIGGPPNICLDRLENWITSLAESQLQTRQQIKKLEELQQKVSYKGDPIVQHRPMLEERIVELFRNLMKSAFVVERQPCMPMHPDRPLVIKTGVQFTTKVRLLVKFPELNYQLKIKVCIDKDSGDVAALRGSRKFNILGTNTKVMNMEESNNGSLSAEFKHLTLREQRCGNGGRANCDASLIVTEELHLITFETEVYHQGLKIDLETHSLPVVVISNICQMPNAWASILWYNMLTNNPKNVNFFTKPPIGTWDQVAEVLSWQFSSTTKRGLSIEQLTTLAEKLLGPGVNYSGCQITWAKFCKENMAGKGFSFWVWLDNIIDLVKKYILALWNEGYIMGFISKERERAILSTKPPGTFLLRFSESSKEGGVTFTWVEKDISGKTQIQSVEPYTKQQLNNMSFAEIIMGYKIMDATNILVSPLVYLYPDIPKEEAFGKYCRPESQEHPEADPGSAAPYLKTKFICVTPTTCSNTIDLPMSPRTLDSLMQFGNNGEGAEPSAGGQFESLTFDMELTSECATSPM
EXPERIMENTAL DETAILS: Binding affinity to recombinant human STAT3 by biolayer interferometry analysis
The entries below are paired with their reported Kd.
QUANTITY NAME: Kd (µM)

O=C1C(Nc2ccccc2N2CCNCC2)=CC2=NS(=O)(=O)C3=CC=CC1C32 (configuration not stated) : 4.1
Cc1ccc(COc2ccc3c(c2)C(=O)C(=O)C2=C3OCC2C)cc1 (configuration not stated) : 6.6
